# targetDesc: cloned human CCR8 receptor stably expressed in L1.2 cells (Homo sapiens, UniProt P51685)
# Construct: expressed in transfected cells
# Sequence (P51685 whole entry): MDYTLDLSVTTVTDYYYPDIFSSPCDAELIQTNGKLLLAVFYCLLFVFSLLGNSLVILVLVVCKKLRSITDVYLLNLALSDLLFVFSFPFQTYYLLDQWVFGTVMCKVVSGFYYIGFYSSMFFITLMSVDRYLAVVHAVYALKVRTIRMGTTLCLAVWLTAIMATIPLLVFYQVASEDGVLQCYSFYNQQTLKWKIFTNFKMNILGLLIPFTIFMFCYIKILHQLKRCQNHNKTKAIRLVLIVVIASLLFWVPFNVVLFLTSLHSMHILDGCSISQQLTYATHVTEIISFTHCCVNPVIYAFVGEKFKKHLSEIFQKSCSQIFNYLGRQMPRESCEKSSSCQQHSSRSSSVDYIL
# testDetails: whole cell binding screen: inhibition of biotinylated human I309 binding to CCR8 (FMAT 8100 HTS)
# experimentalParameters: L1.2/hCCR8 cells, biotinylated human I-309, 10 point concentration response starting at 10 μM; read-out: Ki of compounds to inhibit I-309 binding to CCR8
Listed below: Ki values for each entry.

# molecule, Ki
records = [
    ("Cc1ccccc1C(=O)Nc1ccc(S(=O)(=O)NC2[C@@H](C)CN(Cc3ccccc3)C[C@@H]2C)c2ccccc12 (racemic)", "< 30 µM"),
    ("COc1ccc(NS(=O)(=O)c2ccc(NC(=O)c3ccc([N+](=O)[O-])cc3)c3ccccc23)cc1", "< 30 µM"),
    ("CCc1ccc(NS(=O)(=O)c2ccc3cccc(NC(=O)c4ccccc4)c3c2)cc1", "< 30 µM"),
    ("CCOC(=O)N1CCC(NS(=O)(=O)c2ccc(CNCc3ccc(Cl)cc3)c3ccccc23)CC1", "< 0.5 µM"),
    ("COc1ccc(NS(=O)(=O)c2ccc(NC(=O)c3cccc(OC)c3)c3ccccc23)cc1", "< 1 µM"),
    ("CC(C)NS(=O)(=O)c1ccc(NC(=O)c2ccccc2)c2ccccc12", "< 30 µM"),
    ("Cc1ccccc1C(=O)Nc1ccc(S(=O)(=O)NC2CCN(C(=O)CN(C)C)CC2)c2c1CCCC2", "< 0.5 µM"),
    ("O=C(Nc1ccc(S(=O)(=O)Nc2cccnc2)c2ccccc12)c1ccccc1", "< 30 µM"),
]
